Biological target: Aldehyde dehydrogenase 1A1 (Homo sapiens)
Sequence (P00352 whole entry): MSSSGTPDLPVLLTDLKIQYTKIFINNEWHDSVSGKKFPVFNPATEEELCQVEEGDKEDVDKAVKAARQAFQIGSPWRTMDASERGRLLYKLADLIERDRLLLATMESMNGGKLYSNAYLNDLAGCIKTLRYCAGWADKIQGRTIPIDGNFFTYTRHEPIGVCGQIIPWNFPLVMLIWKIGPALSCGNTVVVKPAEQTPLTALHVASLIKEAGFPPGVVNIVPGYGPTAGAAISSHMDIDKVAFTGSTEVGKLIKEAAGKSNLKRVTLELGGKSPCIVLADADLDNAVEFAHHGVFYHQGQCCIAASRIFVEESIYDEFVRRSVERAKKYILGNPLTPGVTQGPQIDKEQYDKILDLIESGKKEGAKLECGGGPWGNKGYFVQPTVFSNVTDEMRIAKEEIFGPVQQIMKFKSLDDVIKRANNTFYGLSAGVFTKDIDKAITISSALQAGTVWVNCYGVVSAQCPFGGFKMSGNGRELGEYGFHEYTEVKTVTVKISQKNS
Test: Inhibition of ALDH1A1 (unknown origin) assessed as NADH formation using propionaldehyde as substrate
pIC50: −log10 of the molar value.
Everything with pIC50 lower than 6 is false; everything else, including exactly 6, is true.

[
  {
    "input.smiles": "N=C(N)SCc1ccc(CN2C(=O)C(=O)c3cc(Br)ccc32)cc1",
    "group": "false"
  },
  {
    "input.smiles": "Br.N=C(N)SCc1ccc(CN2C(=O)C(=O)c3cc(Cl)cc(Cl)c32)cc1",
    "group": "true"
  },
  {
    "input.smiles": "N=C(N)[Se]Cc1ccc(CN2C(=O)C(=O)c3cccc(Cl)c32)cc1",
    "group": "false"
  },
  {
    "input.smiles": "Br.N=C(N)SCc1ccc(CN2C(=O)C(=O)c3cc(C(F)(F)F)ccc32)cc1",
    "group": "true"
  },
  {
    "input.smiles": "N=C(N)[Se]Cc1ccc(CN2C(=O)C(=O)c3cc(Br)cc(Br)c32)cc1",
    "group": "true"
  },
  {
    "input.smiles": "N=C(N)SCc1ccc(CN2C(=O)C(=O)c3cccc(Cl)c32)cc1",
    "group": "true"
  },
  {
    "input.smiles": "N=C(N)[Se]Cc1ccc(CN2C(=O)C(=O)c3cc(F)cc(Br)c32)cc1",
    "group": "true"
  }
]

###

Reported IC50 values for a set of compounds
Molecular target: Aldehyde dehydrogenase, mitochondrial (Homo sapiens)
Sequence (P05091 whole entry): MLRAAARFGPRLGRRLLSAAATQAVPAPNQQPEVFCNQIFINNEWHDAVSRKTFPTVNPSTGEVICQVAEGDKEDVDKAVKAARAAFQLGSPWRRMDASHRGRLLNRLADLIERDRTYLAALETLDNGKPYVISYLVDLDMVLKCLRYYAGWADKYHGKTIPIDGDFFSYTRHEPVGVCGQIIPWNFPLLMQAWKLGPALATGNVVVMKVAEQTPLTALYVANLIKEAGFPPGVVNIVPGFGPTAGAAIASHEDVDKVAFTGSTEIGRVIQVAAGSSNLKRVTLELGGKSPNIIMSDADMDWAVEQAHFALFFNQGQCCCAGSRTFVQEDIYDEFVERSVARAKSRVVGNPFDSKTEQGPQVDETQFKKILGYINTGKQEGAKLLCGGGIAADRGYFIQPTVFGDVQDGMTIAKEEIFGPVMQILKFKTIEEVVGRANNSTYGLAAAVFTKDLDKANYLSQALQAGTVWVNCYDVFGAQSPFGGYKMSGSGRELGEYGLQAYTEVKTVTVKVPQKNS

[
  {
    "input.smiles": "N=C(N)SCc1ccc(CN2C(=O)C(=O)c3cc(Br)ccc32)cc1",
    "assay.system": "Aldehyde dehydrogenase, mitochondrial (Homo sapiens)",
    "IC50": "> 10 µM"
  },
  {
    "input.smiles": "N=C(N)[Se]Cc1ccc(CN2C(=O)C(=O)c3cccc(Cl)c32)cc1",
    "assay.system": "Aldehyde dehydrogenase, mitochondrial (Homo sapiens)",
    "IC50": "> 10 µM"
  },
  {
    "input.smiles": "N=C(N)SCc1ccc(CN2C(=O)C(=O)c3cccc(F)c32)cc1",
    "assay.system": "Aldehyde dehydrogenase, mitochondrial (Homo sapiens)",
    "IC50": "> 10 µM"
  }
]
